Source of measurements: patent US9980943B2

The following compounds are shown together with reported Emax values.
Test system: α7 integrin (LacZ reporter in α7LacZ+/− myoblasts)
TEST SUMMARY: qHTS of the LOPAC library and MLSMR (online screen, α7LacZ+/− myoblasts)
CONDITION INFO: Mus musculus, Myoblast, 48 h, read-out: Fit Infinite Activity [%]

COMPOUND | Emax
CCCN1C2CCCC1CC(NC(=O)c1cccc([N+](=O)[O-])c1)C2 (stereo not shown) [Compound 164] | 91.8%
COCCSc1ccccc1C(=O)Nc1cc(C)cc(C)c1 [Compound 22] | 83.1%
CC1CCCCN1c1ncnc(N)c1[N+](=O)[O-] (stereo not shown) [Compound 52] | 138%
Cn1c(=O)c2c(nc(Sc3ncnn3CC(=O)NC3CCCCC3)n2C)n(C)c1=O [Compound 201] | 74.9%
O=[N+]([O-])c1cccc(S(=O)(=O)N2CCN(S(=O)(=O)N3CCOCC3)CC2)c1 [Compound 158] | 70.7%
CC(C)c1ccc(NC(=O)CN2C(=O)c3ccccc3S2(=O)=O)cc1 [Compound 150] | 67.4%
CN(C)S(=O)(=O)c1ccc(C(=O)Nc2nc3ccccc3[nH]2)cc1 [Compound 116] | 94.8%
Cc1cccn2c(=O)c3cc(C(=O)NC4CCCCC4)n(C)c3nc12 [Compound 40] | 433%
O=C1CCc2cc(S(=O)(=O)Nc3ccc(C(F)(F)F)cc3)cc3c2N1CC3 [Compound 138] | 108%
COc1ccccc1OCC(=O)N/N=C1/C=C(C)CC1 [Compound 185] | 94.2%
NC1=Nc2cccc3cccc1c23 [Compound 117] | 88.8%
COc1ccc2oc(C[S+]([O-])c3ccccc3)c(C(=O)O)c2c1 (stereo not shown) [Compound 109] | 174%
CCCN(C(=O)c1ccc(S(=O)(=O)N2CCCC2)cc1)C1CCS(=O)(=O)C1 (stereo not shown) [Compound 89] | 75.3%
Cc1ccc(-c2nc(C)sc2CC(=O)OCC(=O)Nc2c(F)cccc2F)cc1 [Compound 210] | 113%
CCNC(=O)CSc1nc(-c2ccc(F)cc2)cs1 [Compound 61] | 136%
COc1ccc(N2CCN(CCC3Oc4cc([N+](=O)[O-])ccc4NC3=O)CC2)cc1 (stereo not shown) [Compound 194] | 73.9%
O=C(Nc1ccc(Cl)cc1N1CCOCC1)C1CCCCC1 [Compound 53] | 152%
Cc1nc2c([nH]1)OC(N)=C(C#N)C21CCN(Cc2ccccc2)CC1 [Compound 132] | 133%
COC(=O)Cc1c(O)ccn(Cc2ccc3c(c2)OCO3)c1=O [Compound 80] | 169%

----------
The following compounds are shown together with reported CMV-LACZ in Myoblasts (β-galactosidase activity relative to DMSO) values.
System: β-galactosidase in CMV-LacZ C2C12 myoblasts
TEST SUMMARY: CMV-LacZ secondary screen in C2C12 myoblasts (β-Gal stabilizing assay)
Assay type: cell-based, mouse
CONDITION INFO: 5 uM; CMV-LacZ C2C12 myoblasts
MEASURE NAME: CMV-LACZ in Myoblasts (β-galactosidase activity relative to DMSO)

COMPOUND | NUMERIC VALUE
CCOc1ccc(Br)cc1S(=O)(=O)Nc1ccc(C(=O)Nc2ccccc2OC)cc1 | 1.0080
COc1cc([N+](=O)[O-])cc(/C=N/NC(=O)C(O)(c2ccccc2)c2ccccc2)c1O | 0.8972
CCN(C(=O)c1ccc(S(=O)(=O)N(C)C)cc1)C(C)C(=O)Nc1ccc(C)cc1 (stereo not drawn) | 0.7938
CCCc1nnc(SCC(=O)NC2CCCC2)n1CCOC | 1.0175
CCc1nc2ccccc2c(C(=O)NCc2ccccc2)c1C | 0.9129
CC1CCN(C(CNS(=O)(=O)c2ccccc2)c2ccccc2)CC1 (stereo not drawn) | 0.9273
COc1ccccc1C(=O)Nc1ccnn1C1CCN(C(=O)c2ccoc2)CC1 | 1.0409
CCCS(=O)(=O)c1nc(S(=O)(=O)c2ccc(C)cc2)c(N2CCCC2)s1 | 1.0836
CC(C)c1ccc(OC(=O)c2cccc(S(=O)(=O)N3CCN(C)CC3)c2)cc1 | 1.0011
COC(=O)c1ccc(N=Nc2ccccc2)cc1 | 0.8934
CSc1ccc(S(=O)(=O)NCc2ccccc2)cc1 | 1.0150
O=C(NCc1ccccc1)C(c1c(F)cccc1Cl)N(C(=O)c1csnn1)C1CC1 (stereo not drawn) | 0.9357
Cn1cc(CN(CCO)Cc2cccs2)c(-c2ccccc2F)n1 | 1.1327
CC(C)(C)Nc1nc(-c2ccc3c(c2)CCN3C(=O)C2CC2)cs1 | 1.0913
Nc1cccc(/C=C/C(=O)O)c1 | 0.9893
Cc1cc(C)cc(OCC(=O)N/N=C/c2ccccn2)c1 | 1.0325
CC1CCCCC1NC(=O)CSc1nnc(COc2ccc(Cl)cc2)o1 (stereo not drawn) | 1.0787
Nc1ncnc(N2CCc3ccccc32)c1[N+](=O)[O-] | 0.5638

----------
Tested on: β-galactosidase in CMV-LacZ C2C12 myoblasts
TEST SUMMARY: CMV-LacZ secondary screen in C2C12 myoblasts (β-Gal stabilizing assay)
Format: cell-based, mouse
CONDITION INFO: 0.5 uM; CMV-LacZ C2C12 myoblasts
MEASURE NAME: CMV-LACZ in Myoblasts (β-galactosidase activity relative to DMSO)

COMPOUND | RESULT
COc1ccccc1CC(=O)Nc1cc(S(=O)(=O)N2CCOCC2)ccc1N1CCOCC1 | 0.9954
CN(CC(=O)Nc1cccc(F)c1)C(=O)c1ccc(-c2ccc(Cl)cc2)o1 | 1.2397
CC1Cc2ccccc2N1C(=O)CSc1nnc(N)s1 (stereo not drawn) | 1.2070
O=C(N[C@@H](Cc1c[nH]c2ccccc12)C(=O)O)C1CCN(S(=O)(=O)c2cccs2)CC1 | 1.1772
Cn1cc(CN(CCO)Cc2cccs2)c(-c2ccccc2F)n1 | 0.6700
Cc1cccc(Cn2cnc3c(nnn3Cc3ccc(Cl)cc3)c2=O)c1 | 0.8600
CC(C)(C)c1ccc(C(=O)OCC(=O)Nc2sc3c(c2C#N)CCC3)cc1 | 0.8954
CCCCNc1nnc(Cc2ccc(Cl)cc2)c(=O)[nH]1 | 0.8003
Fc1ccc(-c2ccnc3nc(N4CCN(c5ccccc5)CC4)nn23)cc1 | 1.0623
CC1CCCCC1NC(=O)CSc1nnc(COc2ccc(Cl)cc2)o1 (stereo not drawn) | 0.7540
N#CC1=C2SCN(c3ccccc3)CN2C(=O)CC1c1cccs1 (stereo not drawn) | 1.1851
Cc1ccc(NS(=O)(=O)c2cccc(C(=O)O)c2)cc1S(=O)(=O)N1CCOCC1 | 0.9249
COc1ccc(CCNC(=O)Cn2nnc(C(=O)Nc3ccc(Br)cc3)c2N)cc1OC | 0.7147
CC(C)c1ccc(OC(=O)c2cccc(S(=O)(=O)N3CCN(C)CC3)c2)cc1 | 1.1702
CCCCN1CC(=O)N2Cc3[nH]c4ccccc4c3C[C@H]2C1=O | 1.1754
CCN(CC(=O)NCc1cccs1)C(=O)COc1ccc(C(N)=O)cc1 | 0.9991
COc1ccc(N=Nc2ccc(N)nc2N)cc1 | 1.1009
O=S(=O)(NC(=NC1CCCCC1)c1ccccc1F)c1ccccc1 | 1.0094

----------
The following compounds are shown together with reported CMV-LACZ in Myotubes, signal relative to DMSO values.
Test system: β-galactosidase in CMV-LacZ C2C12 myotubes
TEST SUMMARY: CMV-LacZ secondary screen in C2C12 myotubes (β-Gal stabilizing assay)
Type: cell-based, mouse
CONDITION INFO: 10 uM; C2C12 CMV-LacZ myotubes; fold relative to DMSO
MEASURE NAME: CMV-LACZ in Myotubes, signal relative to DMSO

COMPOUND | MEASURED ON | NUMERIC VALUE
Cc1ccc(S(=O)(=O)NC(C)C(=O)NC(C)c2cccs2)cc1 (stereo not drawn) | β-galactosidase in CMV-LacZ C2C12 myotubes | 0.9834
CCOC(=O)c1cc(C(=O)OCC)c(=O)[nH]c1SCc1ccccc1 | β-galactosidase in CMV-LacZ C2C12 myotubes | 0.9289
COc1ccccc1-c1coc2c(CN3C(C)CCCC3C)c(O)ccc2c1=O (stereo not drawn) | β-galactosidase in CMV-LacZ C2C12 myotubes | 1.061
CC(C)(C)Nc1nc(-c2ccc3c(c2)CCN3C(=O)C2CC2)cs1 | β-galactosidase in CMV-LacZ C2C12 myotubes | 1.2568
O=c1oc2c(-c3cccc(F)c3)cc(O)cc2s1 | β-galactosidase in CMV-LacZ C2C12 myotubes | 1.106
Cn1c(O)c(C(C#N)=C2N=c3ccccc3=N2)c2ccccc21 | β-galactosidase in CMV-LacZ C2C12 myotubes | 1.1027
COc1cc(/C=C/CN2CCN(Cc3ccc(C)o3)C(CCO)C2)ccc1O (stereo not drawn) | β-galactosidase in CMV-LacZ C2C12 myotubes | 1.0812
Cc1ccccc1C(=O)Nc1nnc(SC(C)C)s1 | β-galactosidase in CMV-LacZ C2C12 myotubes | 1.0866
CC(C)c1ccc(OC(=O)c2cccc(S(=O)(=O)N3CCN(C)CC3)c2)cc1 | β-galactosidase in CMV-LacZ C2C12 myotubes | 0.8998
CCOc1ccc2nc(Cl)sc2c1 | β-galactosidase in CMV-LacZ C2C12 myotubes | 0.9367
Cc1ccccc1S(=O)(=O)N1C[C@H]2CON(C)[C@H]2C[C@H]1c1cccc(-c2ccccc2)c1 | β-galactosidase in CMV-LacZ C2C12 myotubes | 0.9775
CC(C)c1ccc(NC(=O)CN2C(=O)c3ccccc3S2(=O)=O)cc1 | β-galactosidase in CMV-LacZ C2C12 myotubes | 0.9587
CCc1c(C)sc(NC(=O)c2ccco2)c1C#N | β-galactosidase in CMV-LacZ C2C12 myotubes | 0.9955
CCc1c(C2(O)CCCCC2)[nH]c2ncccc12 | β-galactosidase in CMV-LacZ C2C12 myotubes | 0.7966
CC(C)Oc1cccc(C(=O)Nc2ccc(CN3CCOCC3)cc2)c1 | β-galactosidase in CMV-LacZ C2C12 myotubes | 0.9690
CC1CCN(S(=O)(=O)c2ccc(S(=O)(=O)N3CCCC3)cc2)CC1 | β-galactosidase in CMV-LacZ C2C12 myotubes | 0.9409
NS(=O)(=O)c1ccc(NC(=O)CN2CCc3ccccc32)cc1 | β-galactosidase in CMV-LacZ C2C12 myotubes | 1.0751
Cn1cc(CN(CCO)Cc2cccs2)c(-c2ccccc2F)n1 | β-galactosidase in CMV-LacZ C2C12 myotubes | 1.0697
